Data provenance: ChEMBL document CHEMBL3526058

# protocol-summary: Drug recovery in bile of bile duct-cannulated Sprague-Dawley rat at 2 mg/kg, iv measured up to 24 hrs
# Format: ADME, organism-based
# Parameters: dose 2 mg/kg, route intravenous
# cond: read-out: Drug recovery
reported-endpoint: dose excreted at 24 h (%)
Give just the number in %; leave the unit off.

Request: Which value of dose excreted at 24 h has been reported for `COc1ccc(-n2nc(C(N)=O)c3c2[14C](=O)N(c2ccc(N4CCCCC4=O)cc2)CC3)cc1` in the records?
Response: 10.7

====

# protocol-summary: Oral steady-state volume of distribution in beagle dog at 5 mg/kg
# Format: ADME, organism-based, Canis lupus familiaris
# Set-up: dose 5 mg/kg
# cond: in vivo, read-out: Vss/F
reported-endpoint: Vd/F (L/kg)
Give just the number in L/kg; leave the unit off.

Request: Which value of Vd/F has been reported for `COc1ccc(-n2nc(C(N)=O)c3c2C(=O)N(c2ccc(N4CCCCC4=O)cc2)CC3)cc1` in the records?
Response: 0.5
